biological target: Cytochrome P450 2C9 (Homo sapiens); test: qHTS Assay for Inhibitors and Substrates of Cytochrome P450 2C9 (AID 883); conditions: recombinant CYP2C9, luciferin-H luminescence, 60 min; series mostly up to 57.1 µM; further: nearly all actives have a fitted effect of over 60% in size
Records with an inconclusive call do not appear. The source made the active and inactive calls. The call rests on the fitted dose curve; in most records, active means well fitted inhibition curve with a large enough effect; inconclusive means small, poorly fitted or top-dose-only effect; inactive means no such curve, though single readings can be large or run the other way.
Select the matching outcome among active, inactive

// param item: CC(C)C[C@@H](CC(=O)N[C@@H](CCC(=O)O)CC(=O)O)NC(=O)[C@@H]1CCCC[C@H]1NC(=O)C[C@H](CCCN)NC(=O)C[C@H](Cc1c[nH]c2ccccc12)NC(=O)[C@@H]1CCCC[C@H]1N ; yields the recorded call
inactive

Hi team, can someone confirm the assay call for CCC/C=C(\CCC)C(NS(=O)(=O)c1ccc(Cl)cc1)c1ccc(C(=O)OC)cc1 (configuration not stated) ?
active

Record request — test call for O=c1ccn([C@H]2O[C@H](CO)[C@@H](O)[C@@H]2O)c(=O)[nH]1
inactive

Tell me the recorded outcome of this test for CC(C)C[C@@H](CC(=O)N[C@H](CC(=O)N[C@@H]1CCCC[C@H]1C(=O)N[C@H](CC(=O)N[C@@H](CCC(=O)O)CC(=O)O)Cc1c[nH]c2ccccc12)C(C)C)NC(=O)[C@@H]1CCCC[C@H]1N .
inactive

Assay result, entry COc1ccc2nc3c(cc2c1)Cc1ccccc1-3 — outcome?
active

I would be grateful if you could indicate the recorded call for CC(C)[C@@H](CC(=O)N[C@@H]1CCCC[C@H]1C(=O)N[C@H](CC(=O)N[C@@H](CCC(=O)O)CC(=O)O)Cc1c[nH]c2ccccc12)NC(=O)C[C@H](Cc1ccccc1)NC(=O)[C@@H]1CNCC[C@H]1N .
inactive

How was COC(=O)[C@@]1(Cc2ccc(OC)cc2)[C@H]2c3cc(C(=O)N4CCCC4)n(CCc4c[nH]c5ccc(O)cc45)c3C[C@H]2CN1C(=O)c1ccccc1 classified in this test?
active

---

system: CP297; assay: qHTS profiling for inhibitors of Plasmodium falciparum proliferation (AID 504749); further: nearly all actives have a fitted effect of over 60% in size; details: P. falciparum in erythrocytes, SYBR Green DNA, 72 h; series mostly up to 28.7 µM
Inconclusive results are not listed. The source made the active and inactive calls. Calls follow the shape of the dose curve; as a rule, active = well fitted inhibition curve with a large enough effect; inconclusive = small, poorly fitted or top-dose-only effect; inactive = flat fitted curve, though single readings scatter.
Hi! Could you answer with just one of these? active, inactive

Lab log entry: COC(=O)C1C2CC3c4[nH]c5cc(OC)ccc5c4CCN3CC2CC(OC)C1OC (stereo not drawn) — outcome as called in the assay?
inactive

GET /call?item= CC(=O)NC1[C@H](O)C[C@@](O)(C(=O)O)O[C@H]1[C@H](O)[C@H](O)CO (stereo partly drawn) returns the recorded outcome of this test.
inactive

Short answer needed: outcome of this test for O=c1[nH]c(=O)n(C2C[C@H](O)[C@@H](CO)O2)cc1C(F)(F)F (stereo partly drawn) ?
inactive

Which outcome did this test record for the molecule NC(=O)OC[C@@H]1[C@H](NC(=O)/C(=N/OCC(=O)O)c2csc(N)n2)C(=O)N1S(=O)(=O)O ?
inactive

Which outcome was assigned to C=CC1CN2CCC1CC2[C@@H](O)c1ccnc2ccc(OC)cc12 (stereo partly drawn) in this test?
active

What outcome does the record of this test show for C=C(CC[C@@H](C)[C@H]1CCC2[C@]1(C)CC[C@]13C[C@@]14CCC(OC(=O)/C=C/c1ccc(O)c(OC)c1)C(C)(C)[C@@H]4CC[C@@]23C)C(C)C (stereo partly drawn) ?
inactive

Outcome logged for CC1OC(OC2C(O)CC(OC3C(O)CC(OC4CCC5(C)C(CCC6C5CCC5(C)C(C7=CC(=O)OC7)CCC65O)C4)OC3C)OC2C)CC(O)C1O (stereo not drawn) in this assay:
inactive

Hi, sorry to bother you, what did the test record for OCCOC[C@H]1O[C@H](OCCO)[C@H](OCCO)[C@@H](OCCO)[C@@H]1OCCO (tested in a mixture with another compound) ?
inactive

---

test: MultiTox-Fluor Cytotoxicity Assay - LYMP1-001 - Live Cells (AID 947); conditions: LYMP1-001 lymphoblastoid cells, live-cell protease fluorescence viability; series mostly up to 92.2 µM
Results filed as inconclusive are left out. Active and inactive are the calls of the source. The call rests on the fitted dose curve; in most records, active means well fitted cell-killing curve with a large enough effect; inconclusive means small, poorly fitted or top-dose-only effect; inactive means flat fitted curve, though single readings scatter.
Tick one outcome: yes = active, no = inactive

So what was the verdict on CCCCCC/C(C=O)=C\c1ccccc1 in this test?
no

Which result was noted for this molecule in the test: CO[C@H]1/C=C/O[C@@]2(C)Oc3c(C)c(O)c4c(O)c(c5c(c4c3C2=O)NC2(CCN(CC(C)C)CC2)N=5)=NC(=O)/C(C)=C\C=C\[C@H](C)[C@H](O)[C@@H](C)[C@@H](O)[C@@H](C)[C@H](OC(C)=O)[C@@H]1C
no

I would be grateful if you could indicate the recorded call for Nc1ccc2cc3ccccc3cc2c1 .
no

State the result this test recorded for CC(=O)Nc1ccc(C(=O)CCl)cc1 .
yes

Entry C=CC(=O)OCCOCCOC(=O)C=C : call = ?
yes

Per the assay record, what outcome was assigned to CCCCCCCC[N+](CCCCCCCC)(CCCCCCCC)CCCCCCCC ?
yes

# lookup: test call for CCC(C)Nc1ccc(NC(C)CC)cc1 (configuration not stated)
yes

Just curious, what result did CNc1ccc(O)cc1 get here?
yes

Identify the outcome logged in this assay for the molecule shown: CN(C)c1ccc(C2(c3ccc(N(C)C)cc3)OC(=O)c3cc(N(C)C)ccc32)cc1
no

Would you mind telling me which call this test gave O=C1OC(O)C(C(Cl)Cl)=C1Cl (configuration not stated) ?
no

Hi, do you know how O=Cc1ccc(Cl)c(Cl)c1 came out in this test?
no

Field: outcome | Entry: ClC1=C(Cl)C(Cl)(Cl)C(Cl)=C1Cl
no

---

Experiment: MultiTox-Fluor Cytotoxicity Assay - LYMP1-003 - Live Cells (AID 962);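 further: cells exposed to compound for 16 hours at 37 °C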; further: potency means the concentration at half of the fitted maximal effect
Settings: LYMP1-003 lymphoblastoid cells, MultiTox-Fluor live-cell protease fluorescence; series mostly up to 92.2 µM
Text: NIH Chemical Genomics Center [NCGC] NIH Molecular Libraries Screening Centers Network [MLSCN] National Institutes of Environmental Health Sciences [NIEHS] National Toxicology Program [NTP] We have developed a 1536-well cell-based assay for quantitative high throughput screening (qHTS) against a number of cell lines to determine in vitro cytotoxicity of small molecules. […] 8. Detection; live-cell fluorescence (Ex/Em=405/510); EnVision plate reader […]
Active and inactive are the calls of the source. The call rests on the fitted dose curve; in most records, active means well fitted cell-killing curve with a large enough effect; inconclusive means small, poorly fitted or top-dose-only effect; inactive means flat fitted curve, though single readings scatter.
ASSAY_READOUT: Potency

# example entries with known answers
• Cc1cc(O)c(C(C)(C)C)cc1Sc1cc(C(C)(C)C)c(O)cc1C = 39.8 µM (active)
• O=C=Nc1ccc(Cc2ccc(N=C=O)cc2)cc1 = inactive
• c1ccc2c(c1)ccc1cc3c(ccc4ccccc43)cc12 = inactive
• Nc1ccc2cc3ccccc3cc2c1 = inactive
• CC(=O)Nc1ccc(C(=O)CCl)cc1 = 31.6 µM (active)

Tell me its Potency given CCCCCC/C(C=O)=C\c1ccccc1 as the entry.
inactive

Recall and state the measured Potency for C=CC(=O)OCCOCCOC(=O)C=C .
31.6 µM (active)

Identify Potency associated with the molecule CCCCCCCC[N+](CCCCCCCC)(CCCCCCCC)CCCCCCCC
12.6 µM (active)

Given the molecule O=Cc1ccc(Cl)c(Cl)c1 , write its reported Potency.
inactive

Please list Potency recorded for the molecule c1ccc2c(c1)-c1cccc3c1c-2cc1ccccc13
inactive

---

experiment: Cell Viability - LYMP2-025 (AID 976); details: LYMP2-025 lymphoblastoid cell viability; series mostly up to 92.2 µM;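 further: cells exposed to compound for 24 h at 37 °C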
Results filed as inconclusive are left out. Active and inactive are the calls of the source. Calls follow the shape of the dose curve; as a rule, active = well fitted cell-killing curve with a large enough effect; inconclusive = small, poorly fitted or top-dose-only effect; inactive = flat fitted curve, though single readings scatter.
Valid outcomes are listed here; reply with one: 1 for active, 0 for inactive

Short answer needed: outcome of this test for C/C=C1\C(=O)C[C@H]2[C@@H]3CCC4=CC(=O)CC[C@]4(C)[C@H]3CC[C@]12C ?
0

Lab log entry: Cc1cc(O)c(C(C)(C)C)cc1Sc1cc(C(C)(C)C)c(O)cc1C — outcome as called in the assay?
1

Which outcome was assigned to c1ccc2c(c1)-c1cccc3c1c-2cc1ccccc13 in this test?
0

For CCCCCC/C(C=O)=C\c1ccccc1 , which call appears in the assay record?
0

What classification did CC(=O)Nc1ccc(C(=O)CCl)cc1 end up with in this test?
1

Recorded call for CN(C)c1ccc(C2(c3ccc(N(C)C)cc3)OC(=O)c3cc(N(C)C)ccc32)cc1 ?
0

Dear colleague, could you share the recorded outcome for Cc1cc(Nc2ccc(O)cc2)ccc1N when you have a moment?
1

Short answer needed: outcome of this test for CO[C@H]1/C=C/O[C@@]2(C)Oc3c(C)c(O)c4c(O)c(c5c(c4c3C2=O)NC2(CCN(CC(C)C)CC2)N=5)=NC(=O)/C(C)=C\C=C\[C@H](C)[C@H](O)[C@@H](C)[C@@H](O)[C@@H](C)[C@H](OC(C)=O)[C@@H]1C ?
0

Please indicate how the test categorized O=[N+]([O-])c1cc([N+](=O)[O-])c2ccc(S(=O)(=O)O)cc2c1O .
0

Any idea what this test logged for CNc1ccc(O)cc1 ?
1

Returns: the outcome recorded for O=Cc1ccc(Cl)c(Cl)c1 in this assay.
0

// outcome(item) with item = O=C1OC(O)C(C(Cl)Cl)=C1Cl (centres undefined)
1

Query: recorded result category for CN1[C@H]2CC(OC(=O)[C@H](CO)c3ccccc3)C[C@H]1[C@H]1O[C@H]12 (some centres undefined) in this test
0

What classification did Nc1ccc2cc3ccccc3cc2c1 end up with in this test?
0
